Test system: K4 kissing-loop RNA reporter;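 further: bound reporter read as fluorescence of individual clusters on recovered sequencing chips by microscopy, with normalized cluster intensities fitted with a binding model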
Experiment: apparent KD of K4 kissing-loop reporter; higher = weaker reporter binding
Details: Eterna round: R107; input ligand: none
Label yes (1) for high-side apparent KD of K4 kissing-loop reporter (at or above 200 nM) and no (0) for low-side apparent KD of K4 kissing-loop reporter (below it).

Check out these entries, answers already filled in.
Biopolymer Sequence	Experimental System	Group
GCAGACCGCAGUGAUGUUGCGAAAUCGGAAGGAGCGCGUGAAAACGCAGGUAGGUCGCCGACACAGGGAUUAUAACCCUGUUUGC [Arginine A K4 16]	K4 kissing-loop RNA reporter	yes (1)
AGGAUCGAAGAUCCAGCAGUCAAGCAAUACCGAGGACCGGUACGGCCGCCACUCGGAGUGAUGUUCCGAAGACUGCAAAAUAAAA [#SwitchBubble 8]	K4 kissing-loop RNA reporter	yes (1)
CCUGCUACGUAAGGAUAUGGAAAUGAGUGAUGUUUAGAGAUAUGGUCCAGGUUUAGUCAUCAUAGACCAGAAGGUACAUCGGGCG [theeternabot_exclusion_KL_FMN_B_8]	K4 kissing-loop RNA reporter	yes (1)

Q) Does the reported apparent KD of K4 kissing-loop reporter for GGUUCCUCAGUGAUGUUGAGGUGACCUCGGCAGGAUAUAGGCAUUACUAGAAGGGCCAAAAGAACCCUGUGUAGCGACACAGGGA [Beerma] fall at or above the 200 nM mark?
A) yes (1)

Q) Now this one: AAGGCCAGUGAUGUUGGCUUAACCUUCGAUACCAGAACCGAUCGUUUCCCUUGGCAGCGAACACAAUACCUCACAGCGUUAAGUA [theeternabot_sameState_KL_Theo_A_8]
A) no (0)

Q) Entry to check: UGUACCGAGUCAGGAUAUCAUAAUAAAUGCAGUGAUGUUGCAAUAACCAGUACAAAAGUGCUGGAUUGAGAAGGGACUUGGUACU [FmnBS 5 #SwitchBubble #StaticStem]
A) no (0)

Q) Continue with AUAAACUUGCAGUGAUGUUGCAAGUAAGACUAGGAUAUCAGGAAACUGAGAAGGAGUCAUCUCCUUCAACUGCAAGAAUGAAGGA [[K1]-[K2]-[F1]-[F2]-[F]'-[K]'-[F]''_Design4]
A) no (0)

Q) Record: UGGGUGUAGUGAUGUUAUAUAGAGAGUGAUACCAGUUUAGAGAGGAACCCUUGGCAGCAUAGAAGAGUAUCAUUGGAGGAGGAGG [ExTheophyl.Aw]
A) yes (1)

###

Tested on: MS2 coat protein
Assay: apparent KD of MS2 coat protein; designed switch direction (-1 OFF switch, 1 ON switch): -1; higher = weaker reporter binding
Conditions: input ligand: FMN 200 uM
Rule: apparent KD of MS2 coat protein of 20 nM or more gives 1 (yes); anything lower gives 0 (no).

Recorded results for 5 sequences are shown here.
Biopolymer Sequence	Group
UAAGAUUACCGAGGAUAUGCUGGUUUCUAUUAAGCAGAAGGCGGACUCAACAUGAGGAUCACCCAUGUAAGAAGGGUAUUAGAU [Ex NG1 #9] (Eterna round: R96, puzzle: Exclusion NG 1)	1 (yes)
ACGAAACAUGAGGAUCACCCAUGUGAGGAUAUUAUGUUAUAAUACAUACUAUACAUAUUAAGAAGGCACAUUGG [Design #12] (Eterna round: R97, puzzle: Exclusion 1)	1 (yes)
CGCGCCUUUGUCAGGAUAUUCGGGCGAGCCCGGCCGGAGAAGGGACUUGAGGAUCACCCAAGUGACGCGAAAAC [Beenusre] (Eterna round: R97, puzzle: Brourd's mod of Exclusion 4)	1 (yes)
GUCAUCAAACAUGGGAUCAACAUGAGGAUCACCCAUGUUGUCAAGUUUUUUGCUCGUCUUAUAAUACGUUUGAUGAC [Mod-Jxb] (Eterna round: R97, puzzle: Sensor, turn-off variant 1)	0 (no)
AACCUGAGGCAAAGCUUUAGGUGUACAUGAGGAUCACCCAUGUAGGAUAUGGUAGGCAAAGCUUACCAGAAGGACAUAAAGGUU [Mat - Exclusion NG 3 - Mod of JL - D45] (Eterna round: R96, puzzle: Exclusion NG 3)	1 (yes)

Q) Please check the record CGCAGACGAGGAUAUAGAUGGAAUGACAUGAGGAUCACCCAUGUGAUCGAUCUAUUGGGUUUAGAAGGUGUCUGCG [JR_Ex5_Sub046] (Eterna round: R97, puzzle: Exclusion 5) and state if its apparent KD of MS2 coat protein is at or above 20 nM.
A) 0 (no)

Q) And then CCGGAAAGGAAGGAUAUGCUAGACGAUAGUCUAGCAGAAGGUCCUACAUGAGGAUCACCCAUGUGUCCUCCCGG [Mat - Exclusion 6 - Eli Mod - D43] (Eterna round: R97, puzzle: Exclusion 6) , what is it?
A) 1 (yes)

Q) Now give it for CGAGCUAGUGUGAGGAUAUACCUAUGGAUACAUAGGUAGAAGGCACAUGAGGAUCACCCAUGUCCUAUAGCUCG [jl-bmx4-4.56] (Eterna round: R97, puzzle: Brourd's mod of Exclusion 4) too.
A) 1 (yes)

Q) Follow-up entry: GGGCCCGGAGGAUAUACAAUGCGCGCGCGAAAGUGUGUGUUACAUGAGGAUCACCCAUGUAGAAGGCCGGGCCC [-39.9, -36.7 kcal A 24%, 6,0] (Eterna round: R97, puzzle: Exclusion 2)
A) 1 (yes)
